Test system: MCF10A
Assay: 5+ nucleoli phenotype percent effect (relative to siNT 0% and siKIF11 100%); higher = more cells with five or more nucleoli
Settings: 20 nM; 72 h
observable: 5+ nucleoli phenotype percent effect

(Q) Given the entry AAACAAACAUGGUGCACUUCUU [hsa-miR-495-3p] , what 5+ nucleoli phenotype percent effect was observed with MCF10A?
(A) -10.6%

(Q) Now give it for CCUCAAAUGUGGAGCACUAUUCU [hsa-miR-372-5p] too.
(A) 77.2%

(Q) Now the sequence CACCCGGCUGUGUGCACAUGUGC [hsa-miR-941]
(A) -23.6%

(Q) Please give the result for CCAGUAUUAACUGUGCUGCUGA [hsa-miR-16-1-3p] too.
(A) -19.3%

(Q) Lookup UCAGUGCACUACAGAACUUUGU [hsa-miR-148a-3p]
(A) 68.2%

(Q) Would you mind doing UCUCUGCUCUGCUCUCCCCAG [hsa-miR-6728-3p] as well?
(A) 19.2%

(Q) Then what about the sequence CCUCCUGAUGAUUCUUCUUC [hsa-miR-3653-5p] ?
(A) 32.7%

(Q) Now consider AGUAGAGAGGAAAAGUUAGGGUC [hsa-miR-6832-5p] .
(A) 20.4%

(Q) Further, for ACUGGCAUGCUGCAUUUAUAUA [hsa-miR-4799-3p] ?
(A) 50.9%

(Q) Ok, now ACCAGGCAAGAAAUAUUGU [hsa-miR-4645-5p]
(A) 5.96%

(Q) // next record CUCCCCUCUCUUUCCUGUUCAG [hsa-miR-6826-3p]
(A) -9.68%
